FYI, the data here is from paper PMC9516332.

Biological target: panel of 255 wild-type kinases (Homo sapiens, UniProt P22607)
Sequence (P22607 23-806): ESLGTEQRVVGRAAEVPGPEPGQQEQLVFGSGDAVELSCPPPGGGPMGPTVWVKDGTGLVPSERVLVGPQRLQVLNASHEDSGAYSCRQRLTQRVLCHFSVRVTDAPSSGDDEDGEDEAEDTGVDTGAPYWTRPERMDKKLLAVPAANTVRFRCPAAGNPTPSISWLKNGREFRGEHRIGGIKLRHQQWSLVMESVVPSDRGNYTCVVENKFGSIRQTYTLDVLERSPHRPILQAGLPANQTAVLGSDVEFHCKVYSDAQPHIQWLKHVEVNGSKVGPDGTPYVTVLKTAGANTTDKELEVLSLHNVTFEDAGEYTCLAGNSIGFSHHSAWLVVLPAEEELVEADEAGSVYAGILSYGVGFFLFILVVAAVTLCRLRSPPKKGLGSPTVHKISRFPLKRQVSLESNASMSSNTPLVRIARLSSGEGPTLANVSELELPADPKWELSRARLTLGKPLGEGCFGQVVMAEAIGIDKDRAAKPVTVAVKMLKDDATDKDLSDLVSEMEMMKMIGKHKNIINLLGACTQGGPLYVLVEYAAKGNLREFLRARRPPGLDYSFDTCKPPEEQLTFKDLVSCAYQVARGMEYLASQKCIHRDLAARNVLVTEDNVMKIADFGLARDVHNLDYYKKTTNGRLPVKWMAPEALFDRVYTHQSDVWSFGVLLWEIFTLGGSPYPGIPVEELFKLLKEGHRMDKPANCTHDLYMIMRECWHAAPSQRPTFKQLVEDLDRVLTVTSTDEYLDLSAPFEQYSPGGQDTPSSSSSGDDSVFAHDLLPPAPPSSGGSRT
Experiment: Kinase panel profiling at 1 µmol/L (MSA or IMAP), percentage inhibition
Format: biochemical
Settings: kinase FGFR3; 1 µmol/L single concentration; read-out: %-inhibition at 1 µmol/L, FGFR3
assay metric: inhibition at 1 µM (%)
The response must be a number in % with no trailing unit.

Record summary for "C=CC(=O)N1CCC([C@@H]2CCNc3c(C(N)=O)c(-c4ccc(Oc5ccccc5)cc4)nn32)CC1" : reported inhibition at 1 µM = 4.61

Record summary for "Cc1cc(Nc2ncnc3ccc(NC4=NC(C)(C)CO4)cc23)ccc1Oc1ccn2ncnc2c1" : reported inhibition at 1 µM = 2.63

Record summary for "CN1CCN(c2ccc(C(=O)Nc3n[nH]c4ccc(Cc5cc(F)cc(F)c5)cc34)c(NC3CCOCC3)c2)CC1" : reported inhibition at 1 µM = 90

Record summary for "C[C@H]1Oc2cc(cnc2N)-c2c(nn(C)c2C#N)CN(C)C(=O)c2ccc(F)cc21" : reported inhibition at 1 µM = -0.405

Record summary for "Cc1nc(NC(=O)N2CCC[C@H]2C(N)=O)sc1-c1ccnc(C(C)(C)C(F)(F)F)c1" : reported inhibition at 1 µM = 3.39

Record summary for "CO[C@]1(C(=O)N[C@@H](C)c2ccc(-n3cc(F)cn3)nc2)CC[C@H](c2nc(C)cc(Nc3cc(C)[nH]n3)n2)CC1" : reported inhibition at 1 µM = 96

Record summary for "CCN1C(=O)N(c2c(F)c(OC)cc(OC)c2F)Cc2cnc3[nH]c(CN4CCOCC4)cc3c21" : reported inhibition at 1 µM = 100

Record summary for "CCN1CCN(c2ccc(Nc3cc(N(C)C(=O)Nc4c(Cl)c(OC)cc(OC)c4Cl)ncn3)cc2)CC1" : reported inhibition at 1 µM = 102

Record summary for "Cn1cc(-c2cc3c(N4CCN(c5ncc([C@@](C)(N)c6ccc(F)cc6)cn5)CC4)ncnn3c2)cn1" : reported inhibition at 1 µM = 41

Record summary for "Cn1cnc2c(F)c(Nc3ccc(Br)cc3F)c(C(=O)NOCCO)cc21" : reported inhibition at 1 µM = 1.4

Record summary for "COc1cc2ncnc(Nc3ccc(F)c(Cl)c3)c2cc1NC(=O)/C=C/CN1CCCCC1" : reported inhibition at 1 µM = 26

Record summary for "FC(F)(F)c1ccc(CNc2ccc(Cc3c[nH]c4ncc(Cl)cc34)cn2)cn1" : reported inhibition at 1 µM = 68

Record summary for "C[C@H](Nc1ncnc2nc[nH]c12)c1cc2cccc(Cl)c2c(=O)n1-c1ccccc1" : reported inhibition at 1 µM = 0.29

Record summary for "CCn1c(=O)c(-c2cc(NC(=O)Nc3ccccc3)c(F)cc2Br)cc2cnc(NC)cc21" : reported inhibition at 1 µM = 52
